target: DrDXPS (WT) (Deinococcus radiodurans)
Sequence (Q9RUB5 whole entry, looked up): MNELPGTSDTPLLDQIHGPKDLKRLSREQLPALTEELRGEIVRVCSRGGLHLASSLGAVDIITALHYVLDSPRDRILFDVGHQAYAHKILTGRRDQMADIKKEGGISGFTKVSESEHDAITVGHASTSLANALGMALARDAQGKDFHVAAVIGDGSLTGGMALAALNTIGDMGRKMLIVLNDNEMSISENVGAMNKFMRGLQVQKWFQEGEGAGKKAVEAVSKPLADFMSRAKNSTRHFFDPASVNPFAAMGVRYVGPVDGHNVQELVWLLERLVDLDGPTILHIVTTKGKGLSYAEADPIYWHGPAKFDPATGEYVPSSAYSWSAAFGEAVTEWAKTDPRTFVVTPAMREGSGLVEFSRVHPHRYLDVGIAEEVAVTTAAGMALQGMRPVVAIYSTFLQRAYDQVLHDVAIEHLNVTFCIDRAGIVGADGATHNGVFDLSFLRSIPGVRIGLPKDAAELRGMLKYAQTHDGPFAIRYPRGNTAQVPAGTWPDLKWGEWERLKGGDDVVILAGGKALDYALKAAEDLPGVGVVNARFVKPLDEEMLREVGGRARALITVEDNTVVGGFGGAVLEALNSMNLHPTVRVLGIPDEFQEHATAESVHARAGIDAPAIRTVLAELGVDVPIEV
procedure.text: biochemical
Assay type: biochemical
condition.context: DrDXPS (WT) IC50, Fig. 2B; [ThDP] 0.5 μM (8x Km), [PYR] […] (1.2x), [D-GAP] 0.5 mM (2.9x)
reported.metric: pIC50
A value of pIC50 is the negative decimal logarithm of a concentration given in moles per litre.

# get_value(readout='pIC50', item= Cc1ncc(Cc2csc(CCO)c2C)c(N)n1 [DZT, deazathiamine, reference compound] ) 3.31

====

Exercise: for every item that follows, state its recorded pIC50.
target: MtDXPS (Mycobacterium tuberculosis, UniProt P9WNS3)
Sequence (P9WNS3 whole entry, looked up): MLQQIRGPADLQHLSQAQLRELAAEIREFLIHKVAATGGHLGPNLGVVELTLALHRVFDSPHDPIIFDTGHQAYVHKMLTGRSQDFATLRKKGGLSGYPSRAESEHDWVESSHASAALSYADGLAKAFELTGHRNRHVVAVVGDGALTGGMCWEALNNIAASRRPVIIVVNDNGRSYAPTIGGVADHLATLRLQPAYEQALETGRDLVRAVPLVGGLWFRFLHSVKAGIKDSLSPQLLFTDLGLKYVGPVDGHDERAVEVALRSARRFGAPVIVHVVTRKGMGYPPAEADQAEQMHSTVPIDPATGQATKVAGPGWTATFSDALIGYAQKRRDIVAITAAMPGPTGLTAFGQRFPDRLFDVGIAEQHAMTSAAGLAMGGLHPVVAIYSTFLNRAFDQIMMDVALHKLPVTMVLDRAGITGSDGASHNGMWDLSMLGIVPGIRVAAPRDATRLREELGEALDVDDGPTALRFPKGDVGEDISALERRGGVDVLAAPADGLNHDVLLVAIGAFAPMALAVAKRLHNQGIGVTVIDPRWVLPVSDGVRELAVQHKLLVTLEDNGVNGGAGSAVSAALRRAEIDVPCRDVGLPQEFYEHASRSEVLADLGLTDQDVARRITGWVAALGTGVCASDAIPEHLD
procedure.text: biochemical
pIC50: −log10 of the molar value.

# get_value(readout='pIC50', item= NC(Cc1ccc(O)cc1)c1nc2ccccc2[nH]1 (stereo not drawn) ) < 3.00

Again, but for Cc1ncc(Cc2csc(CCO)c2C)c(N)n1 [DZT, deazathiamine, reference compound] < 2.40

Again, but for `COc1cc(Cl)c(/C=C2\SC(=S)N(CC(=O)O)C2=O)c(OC)c1` < 3.62

Again, but for OCc1cc(CO)n(CCc2c[nH]cn2)n1 [Compound 2, reference compound] < 2.70

Again, but for `O=Cc1ccc(O[C@@H]2O[C@H](CO)[C@@H](O)[C@H](O)[C@H]2O)cc1` < 3.00

Again, but for COc1cncc(Cn2ccnc2)c1 [Compound 1, reference compound] < 2.70

Origin of the recorded values: paper PMC9491098
